Kindly supply the reported viability at 28.5 h, 10 µM values for the records listed here.
experiment: in vitro; conditions: human, hela cells, % viability
Numbers only, in %.

Solved entries (count: 4):
Nc1ncc(-c2cccc(C(=O)O)c2)nc1N1CCOCC1 [CBK063415]    101
O=C(/C(=C\c1ccc([N+](=O)[O-])cc1)n1cncn1)c1ccc(Cl)cc1Cl [CBK262145]    90.3
Nc1nc(OCCN2CCCC2=O)cnc1-c1cc(Cl)cc(Cl)c1 [CBK145199]    89.3
CC(C)[C@@H](CO)Nc1nc(-c2ccccc2Cl)cn2ccnc12 [CBK037368]    101

# per-item lookup of viability at 28.5 h, 10 µM; items listed below
1. O=C(O)CCCn1c(-c2cccc([N+](=O)[O-])c2)nc(=S)c2c1CCCC2 [CBK265657]
2. O=C(O)c1ccc(CNCc2ccc(-c3ccc(F)cc3)o2)cc1 [CBK269622C]
3. O=C(Nc1nccs1)C1CCCN(C(=O)c2ccco2)C1 (stereo not drawn) [CBK296725]
4. CCn1ncnc1CN1CCOc2ccc(CO)cc2C1 [CBK307245]
5. O=c1[nH]c(=O)c2cc(S(=O)(=O)NC3(c4ccccc4)CCCC3)ccc2[nH]1 [CBK286378]

# output
[101, 90.9, 98.7, 80.7, 110]

====

experiment: in vitro; settings: human, hela cells, % viability
Experimental Readout: viability at 28.5 h, 10 µM (%)
One number for each entry, in %.

Please review the following examples before continuing.
C[C@H](NC(=O)N1CCN(C(=O)c2c[nH]c3ccccc23)CC1)C(=O)O    84.5
S=c1[nH]nc(COc2ccc(Cl)cc2Cl)[nH]1    80.3
CC(C)C(NC(=O)CSc1n[nH]c(=O)n1Cc1ccccc1)c1ccc2c(c1)OCCCO2 (stereo not shown)    106
CN1Cc2nc[nH]c2C[C@H]1C(=O)NCc1ccco1    88
Cc1cnoc1-c1cc(Br)cc(Br)c1O    104

I would be grateful if you could provide viability at 28.5 h, 10 µM for each of the following entries.
1. CCCc1cc(C(=O)N2CCNCC2C(=O)N2CCN(C)CC2)ccn1 (stereo not shown)
2. CC(NC(=O)c1ncoc1-c1ccc2ccccc2c1)c1cccnc1 (stereo not shown)
3. CN1CCC(N2CCN(C(=O)c3cncc(-c4ccc(C(=O)N5CCOCC5)cc4)c3)CC2)CC1
4. Cc1ccc(-n2c(SCC(=O)N3CCc4ccccc43)nnc2-c2ccccc2O)c(C)c1
5. CC1=NN(c2ccc([N+](=O)[O-])cc2)C(=O)/C1=C\NCCc1ccc(S(N)(=O)=O)cc1
6. CCN1C(=O)C2(CC(=O)N(Cc3ccccc3)C2=O)c2cc(Cl)ccc21 (stereo not shown)
7. Cc1nnc(SCc2ccc(CSc3nnc(C)n3N)cc2)n1N
8. O=C(Cc1ccc(Cl)cc1)Nc1ccc(Oc2ccc3c(c2)C(=O)NC3=O)cc1

# output
1. 97.5
2. 94.2
3. 115
4. 108
5. 92.6
6. 99.1
7. 106
8. 87.8

Dear colleague, could you send me viability at 28.5 h, 10 µM for each of the items below? Thanks.
1. O=C(Cc1cccc(O)c1)N1CCCC1c1nc2ccccc2[nH]1 (stereo not shown)
2. O=C(c1cc2ccccc2[nH]1)N1CCN(Cc2ccccc2)CC1
3. CCOC(=O)c1cn(CC)c2cc(N3CCOCC3)c(F)cc2c1=O
4. CS(=O)(=O)N1CC=CC1C(=O)NCCCc1ccc(F)cc1 (stereo not shown)
5. O=C(NC1CCCCC1)c1csc(-c2ccncc2)n1
6. CC(=O)NC(C)(COc1nonc1C)COc1nonc1C

# output
1. 91.9
2. 118
3. 95.7
4. 85.5
5. 64.2
6. 90.3

====

Please go through the items and note down their viability at 28.5 h, 10 µM.
experiment: in vitro; settings: human, hela cells, % viability
Numbers only, in %.

Please review the entries below; each comes with its answer.
N#CCCn1cc(C(=O)N2CCOCC2)c(-c2cccc(Cl)c2)n1    88.2
Cc1nn(C)c(C)c1CN(C)C(=O)c1cc(-c2ccc(F)cc2)on1    82.2
Cc1c(C(N)=O)sc2ncn(CCc3ccccc3)c(=O)c12    103
CC(C)OC(=O)CN1C(=O)N2CCCN=C2c2ccccc21    89.4

Below are 5 compounds. Give each one its viability at 28.5 h, 10 µM.
1. CC(=O)N1CCN(c2cc(-c3noc([C@@H]4CCCN4C4CCOCC4)n3)ccn2)CC1
2. O=C(NCC(c1ccco1)N1CCCC1)N1CCc2ccccc2C1 (stereo not drawn)
3. CC(=O)N1CCc2cc(NCc3nc4ccccc4n3C(C)c3ccccc3)ccc21 (stereo not drawn)
4. O=C1CCCN1CCOc1nccnc1-c1cc2ccccc2s1
5. O=C1NC2CCCCC2NC1CC(=O)N1CCN(C(c2ccccc2)c2ccccc2)CC1 (stereo not drawn)

# output
88
98.8
81.7
91
88.7

====

assay: in vitro; conditions: human, hela cells, % viability
Assignment: determine reported viability at 28.5 h, 10 µM for the given compounds.
One number for each entry, in %.

Below, 2 compounds whose answers are already recorded.
COc1ccnc(N2CCCN(CCCC#N)CC2)n1 [CBK084124]    88.4
CC(=O)N1C[C@@H]2C[C@H](C1)c1ccc(NC(=O)c3ccc(C#N)cc3)c(=O)n1C2 [CBK289202]    90.6

Give measured viability at 28.5 h, 10 µM for every item shown.
1. COCCCn1cnnc1C(C)NC(=O)N(C)Cc1nccs1 (centres unmarked) [CBK306702]
2. CCCc1ccc(S(=O)(=O)Nc2nc(C)c(C(=O)O)s2)cc1 [CBK045555]
3. Cc1cc(Oc2ccccc2)nc(Oc2ccc(OCC(N)=O)nn2)n1 [CBK266687]

# output
[111, 88.3, 98.5]

====

experiment: in vitro; conditions: human, hela cells, % viability
Experimental Readout: viability at 28.5 h, 10 µM (%)
Numbers only, in %.

For orientation, consider the following solved cases.
O=C1CNC(=O)C2(C/C=C/C[C@H]3COCC[C@H]3N1)CCN(Cc1cccc3[nH]ccc13)CC2 [CBK292073]    110
COc1ccc(OC)c(NC(=O)CSc2nnc(-c3ccncc3)n2C)c1 [CBK266623]    103
Cc1ccc(C(=O)N2CCN(C(=O)CN3CCN(C)CC3)C2)cc1 [CBK024841C]    76.4
Cc1nc(CCCn2cnc3nccnc3c2=O)sc1C [CBK306962]    103
O=C(c1ccoc1)N1CCC2(CCCN(CCCn3c(=O)[nH]c4ccccc43)C2)C1 (stereo not shown) [CBK132818]    90.1

Provide each entry's viability at 28.5 h, 10 µM from the list below.
1. COc1ccc(NC(=O)CSc2ncnc3sc(C)cc23)c(OC)c1 [CBK277541]
2. c1cc(-c2ccc(Nc3ccc(N4CCOCC4)cc3)nc2)cs1 [CBK036844]

# output
1. 100
2. 97.6

====

Record form. Attribute: viability at 28.5 h, 10 µM. Fill in for each entry.
assay: in vitro; details: human, hela cells, % viability
Could you write the number and then its unit?

Below, each entry is followed by its recorded viability at 28.5 h, 10 µM result.
Cc1cc(C)c2c(c1)cc(C)c1nn(CC(=O)N(C)C)c(=O)n12    96.9%
O=C(CCCN1C(=O)c2cccc3cccc(c23)C1=O)Nc1cccnc1    81.5%
CN(C)C(=O)c1cc(Br)cnc1NCc1ccc2c(c1)OCO2    110%

Report viability at 28.5 h, 10 µM for each item below.
1. CCC(c1ccc(F)cc1)N(C)C(=O)Cn1cc(C(=O)NC2CCCCC2)ccc1=O (centres unmarked)
2. CC(C)(C)OC(=O)NC1CCN(C(=O)CCC(=O)O)CC1
3. Oc1cc(C(F)(F)F)nc(N2CCc3ccccc3C2)n1

# output
1: 89.8%; 2: 95.9%; 3: 82%

Could you tell me viability at 28.5 h, 10 µM for each of these compounds? They are listed below.
1. CNS(=O)(=O)c1cc(C(=O)NC2CCCc3ccccc32)n(C)c1 (centres unmarked)
2. CC(=O)c1c(C)nn(C(C)CC(=O)Nc2ccc(Cl)c(Cl)c2)c1C (centres unmarked)
3. Nc1ncc(-c2cccc(C(F)(F)F)c2)c2cccnc12
4. CCCc1n[nH]c(O)c1Cc1ccc(OCCCN(C)C)cc1 [CBK116249A]
5. O=C(O)Cc1ccc(-n2c(S)nnc2-c2ccncc2)cc1

# output
["103%", "87.3%", "89.2%", "93.1%", "94.9%"]

====

Give measured viability at 28.5 h, 10 µM for each item. Keep answers brief.
assay: in vitro; conditions: human, hela cells, % viability
Numbers only, in %.

For orientation, consider the following solved cases.
O=C(Nc1ccc(N2CCOCC2)cc1)c1ccc(-n2cnnc2)cc1Cl    91
Cc1nc(CCNCc2c(C)nn(C)c2N(C)C)cs1    88.3
CSCCCN1C(=O)CN(Cc2ccccc2)C1=O    91.4

For each of the molecules below, state viability at 28.5 h, 10 µM.
1. O=C(Nc1ccc(Br)cc1)C1CCCN1S(=O)(=O)c1ccc(Cl)cc1 (stereo not shown)
2. COc1ccc(C(=O)Nc2ccccc2)cc1S(=O)(=O)Nc1cccnc1
3. Cc1ccc(OCCNC(=O)C(C)Cn2cccn2)cc1 (stereo not shown)
4. O=C(Cn1cnc2c(oc3ccccc32)c1=O)Nc1ccc2c(c1)OCO2
5. COCCNc1nc(-c2ccsc2)ccc1C(=O)N1CCN(C)CC1
6. CN1C=NC2C1C(=O)N(CCn1c(=O)c3c(ncn3C)n(C)c1=O)C(=O)N2C (stereo not shown)

# output
[88.4, 94.4, 111, 118, 112, 101]

# input Dear colleague, I am looking for the recorded viability at 28.5 h, 10 µM of the following molecule: CN(Cc1ccc2ncccc2c1)C(=O)C1CN(S(=O)(=O)c2ccc(F)cc2)C1
# output 92.5

Value source: paper PMC12040169
